For each of the compounds below, state its IC50.
system: full length active recombinant SYK enzyme (Homo sapiens)
Construct: full length active recombinant SYK enzyme (Millipore, Calif.)
procedure-details: Inhibition of Syk tyrosine phosphorylation activity (LANCE TR-FRET kinase assay)
conditions: activity in the Syk assays, class symbols

Below are worked cases with known answers.
[[record]]
compound = "NC(=O)c1ncc(N[C@H]2CCCNC2)nc1Nc1ccc2ncccc2c1 [Example 58]"
readout_label = "IC50"
meas_value = "10 to 100 nM"

[[record]]
compound = "CC[C@@H](Nc1cnc(C(N)=O)c(Nc2cc(C(=O)N(C)C)ns2)n1)C(N)=O [Example 249]"
readout_label = "IC50"
meas_value = "100 to 1000 nM"

[[record]]
compound = "CCc1cc(Nc2nc(N[C@@H](C(N)=O)C(C)(C)C)cnc2C(N)=O)sn1 [Example 236]"
readout_label = "IC50"
meas_value = "10 to 100 nM"

[[record]]
compound = "NC(=O)c1ncc(N[C@@H]2CCCC[C@@H]2N)nc1Nc1cc(-n2ccnn2)cc(-n2ccnn2)c1 [Example 432]"
readout_label = "IC50"
meas_value = "1 to 10 nM"

[[record]]
compound = "CNC1(CNc2cnc(C(N)=O)c(Nc3ccc4ncccc4c3)n2)CC1 [Example 129]"
readout_label = "IC50"
meas_value = "1 to 10 nM"


Batch request: IC50 per item, same order as input.
1. CC(C)[C@@H](Nc1cnc(C(N)=O)c(Nc2ccc(CN3CCOCC3)cc2)n1)C(N)=O [Example 148]
2. CN(C)c1nc2ccc(Nc3nc(N[C@@H]4CCCC(F)(F)[C@@H]4N)cnc3C(N)=O)cc2o1 [Example 336]
3. NC(=O)c1ncc(N[C@@H]2CCCC(F)(F)[C@@H]2N)nc1Nc1ccnc(OC2CCC2)c1 [Example 356]
4. Cc1cc(Nc2nc(N[C@@H](C(N)=O)C(C)(C)C)cnc2C(N)=O)sn1 [Example 214]
5. COc1cc(Nc2nc(N[C@H](CC(C)(C)C)C(N)=O)cnc2C(N)=O)ccn1 [Example 256]

Data returned:
1. 100 to 1000 nM
2. 1 to 10 nM
3. 10 to 100 nM
4. 10 to 100 nM
5. 1 to 10 nM

Batch request: IC50 per item, same order as input.
1. NC(=O)c1ncc(N[C@H]2CN[C@@H](CO)C2)nc1Nc1cnc2ccc(F)cc2c1 [Example 140]
2. NC(=O)c1ncc(N[C@@H]2CCCC(F)(F)[C@@H]2N)nc1Nc1cncc2ccccc12 [Example 363]
3. CC[C@@H](Nc1cnc(C(N)=O)c(Nc2cnc(N(C)C)c(C)c2)n1)C(N)=O [Example 314]
4. CC[C@@H](Nc1cnc(C(N)=O)c(Nc2cc(CO)ns2)n1)C(N)=O [Example 251]
5. NC(=O)c1ncc(N[C@@H]2CCCC[C@@H]2N)nc1Nc1ccc(-n2cccn2)cc1 [Example 62]

Data returned:
1. 1 to 10 nM
2. 10 to 100 nM
3. 100 to 1000 nM
4. 10 to 100 nM
5. 100 to 1000 nM

Batch request: IC50 per item, same order as input.
1. CC[C@@H](Nc1cnc(C(N)=O)c(Nc2cc(C)cc(C)c2)n1)C(N)=O [Example 77]
2. NC(=O)c1ncc(N[C@@H]2CCCC[C@@H]2N)nc1Nc1ccc2nccn2c1 [Example 425]
3. CC(C)[C@@H](Nc1cnc(C(N)=O)c(Nc2cncc(Cl)c2)n1)C(N)=O [Example 222]
4. CC[C@@H](Nc1cnc(C(N)=O)c(Nc2cnc3cccnc3c2)n1)C(N)=O [Example 383]
5. CC[C@@H](Nc1cnc(C(N)=O)c(Nc2cncc3ccccc23)n1)C(N)=O [Example 367]
6. CC(=O)N(C)c1ccc(Nc2nc(N[C@@H](C(N)=O)C(C)C)cnc2C(N)=O)cc1 [Example 157]
7. NC(=O)c1ncc(N[C@@H]2CCCC[C@@H]2N)nc1Nc1ccnc2ncccc12 [Example 437]

Data returned:
["1 to 10 nM", "1 to 10 nM", "10 to 100 nM", "10 to 100 nM", "1 to 10 nM", "100 to 1000 nM", "1 to 10 nM"]

Batch request: IC50 per item, same order as input.
1. CC[C@@H](Nc1cnc(C(N)=O)c(Nc2cc(CN3CCOCC3)ns2)n1)C(N)=O [Example 254]
2. CC(=O)N1CC[C@@H](Nc2cnc(C(N)=O)c(Nc3cnc4ccccc4c3)n2)C1 [Example 110]
3. Cc1ccc(Nc2nc(N[C@H](CC(F)F)C(N)=O)cnc2C(N)=O)cc1C [Example 122]
4. NC(=O)c1ncc(N[C@@H]2CCCC[C@@H]2N)nc1Nc1cc(C(=O)N2CCCC2)ccc1F [Example 289]

Data returned:
100 to 1000 nM
> 1000 nM
< 1 nM
10 to 100 nM
